# assay explanation: Biodistribution of 177Lu-labeled αMSH analogues in mice bearing B16F10 mouse melanoma
# Format: in vivo, C57BL/6J mice
# settings: mouse, adrenal glands, iv, total radioactivity; 1 h p.i., C57BL/6J mice, B16F10 melanoma; read-out: Biodistribution, Adrenal glands
observable: tissue uptake at 1 h (%ID/g)
Reply numerically in %ID/g, unit not repeated.

Worked examples follow.
compound	unit tag	tissue uptake at 1 h
CCCC[C@H](NC(=O)CN1CCC(NC(=O)CN2CCN(CC(=O)O)CCN(CC(=O)O)CCN(CC(=O)O)CC2)CC1)C(=O)N[C@H]1CC(=O)NCCCC[C@@H](C(N)=O)N(C)C(=O)[C@H](Cc2c[nH]c3ccccc23)N(C)C(=O)[C@H](CCCNC(=N)N)N(C)C(=O)[C@@H](Cc2ccccc2)NC(=O)[C@H](Cc2c[nH]cn2)N(C)C1=O [^177Lu-labeled CCZ01099, metal not drawn]	%ID/g	0.39
CCCC[C@H](NC(=O)CN1CCC(NC(=O)CN2CCN(CC(=O)O)CCN(CC(=O)O)CCN(CC(=O)O)CC2)CC1)C(=O)N[C@H]1CC(=O)NCCCC[C@@H](C(N)=O)N(C)C(=O)[C@H](Cc2c[nH]c3ccccc23)NC(=O)[C@H](CCCNC(=N)N)N(C)C(=O)[C@@H](Cc2ccccc2)NC(=O)[C@H](Cc2c[nH]cn2)NC1=O [^177Lu-labeled CCZ01106, metal not drawn]	%ID/g	0.54

Note: attention shifts to another entry.
(Q) Recorded tissue uptake at 1 h of CCCC[C@H](NC(=O)CN1CCC(NC(=O)[C@H](CCCCNC(=O)CN2CCN(CC(=O)O)CCN(CC(=O)O)CCN(CC(=O)O)CC2)NC(=O)[C@H](CCC(=O)O)NC(=O)CCCc2ccc(I)cc2)CC1)C(=O)N[C@H]1CC(=O)NCCCC[C@@H](C(N)=O)N(C)C(=O)[C@H](Cc2c[nH]c3ccccc23)NC(=O)[C@H](CCCNC(=N)N)N(C)C(=O)[C@@H](Cc2ccccc2)NC(=O)[C@H](Cc2c[nH]cn2)NC1=O [^177Lu-labeled CCZ01118, metal not drawn] , please.
(A) 2.9
